Molecular target: human orexin type 2 receptor (Homo sapiens, UniProt O43614)
Construct: expressed in transfected cells
Sequence (O43614 whole entry): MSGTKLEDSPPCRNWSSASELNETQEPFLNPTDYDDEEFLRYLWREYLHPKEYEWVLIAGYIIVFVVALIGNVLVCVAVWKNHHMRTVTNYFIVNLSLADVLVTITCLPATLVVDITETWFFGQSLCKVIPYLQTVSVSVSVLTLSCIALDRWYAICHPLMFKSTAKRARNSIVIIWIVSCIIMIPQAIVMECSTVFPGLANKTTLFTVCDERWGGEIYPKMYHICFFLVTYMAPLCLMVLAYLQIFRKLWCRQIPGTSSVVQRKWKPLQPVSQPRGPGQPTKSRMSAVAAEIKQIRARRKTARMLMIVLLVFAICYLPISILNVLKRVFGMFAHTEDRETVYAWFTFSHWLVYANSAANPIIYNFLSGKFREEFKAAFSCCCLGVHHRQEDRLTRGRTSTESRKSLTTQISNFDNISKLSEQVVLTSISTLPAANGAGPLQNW
Test: Measurement of orexin type 2 receptor agonist activity (calcium fluorescence, CHO cells forcibly expressing human OX2 receptor)
Format: cell-based
Details: compound at 3 μM, DMSO = 0%, orexin A (human) 10 nM = 100%
Recorded metric: OX2R agonist activity (3 μM, %)

In [3]: df
Out[3]:
                                   compound                  recorded_metric  assay_value
0  Cc1ccc(C2CCC(OCC3C(NS(C)(=O)=O)CCc4ccc(C)c(=O)n43)CC2)cc1 (racemic)  OX2R agonist activity (3 μM, %)          78%
1  Cc1ccccc1C1CCC(OCC2C(NS(=O)(=O)C3CC3)CCc3ccc(C)c(=O)n32)CC1 (racemic)  OX2R agonist activity (3 μM, %)          97%
2  CC#CC1CCC(OCC2C(NS(C)(=O)=O)CCc3ccc(C)c(=O)n32)CC1 (stereo not drawn) [Example 146]  OX2R agonist activity (3 μM, %)         104%
3  Cc1ccc2n(c1=O)C(COC1CCC(C(C)C)CC1)C(NS(=O)(=O)C1CC1)CC2 (racemic)  OX2R agonist activity (3 μM, %)         100%
4  CCC1CCC(OCC2C(NS(=O)(=O)N(C)C)CCc3ccc(C)c(=O)n32)CC1 (racemic)  OX2R agonist activity (3 μM, %)          85%
5  Cc1ccc2n(c1=O)C(COC1CCC(C)CC1)C(NS(=O)(=O)N(C)C)CC2 (racemic)  OX2R agonist activity (3 μM, %)          86%
6  CCS(=O)(=O)NC1CCc2ccc(C)c(=O)n2C1COC1CCC(c2cccc(C)c2)CC1 (racemic)  OX2R agonist activity (3 μM, %)          83%
7  CC#CC1CCC(OCC2C(NS(=O)(=O)C3CC3)CCc3ccc(C)c(=O)n32)CC1 (stereo not drawn)  OX2R agonist activity (3 μM, %)          97%
8  Cc1ccc2n(c1=O)C(COC1CCC(c3ccccc3)CC1)C(NS(=O)(=O)N(C)C)CC2 (racemic)  OX2R agonist activity (3 μM, %)          83%
